# measured.target: Mitogen-activated protein kinase 14 (Mus musculus)
# Sequence (P47811 whole entry): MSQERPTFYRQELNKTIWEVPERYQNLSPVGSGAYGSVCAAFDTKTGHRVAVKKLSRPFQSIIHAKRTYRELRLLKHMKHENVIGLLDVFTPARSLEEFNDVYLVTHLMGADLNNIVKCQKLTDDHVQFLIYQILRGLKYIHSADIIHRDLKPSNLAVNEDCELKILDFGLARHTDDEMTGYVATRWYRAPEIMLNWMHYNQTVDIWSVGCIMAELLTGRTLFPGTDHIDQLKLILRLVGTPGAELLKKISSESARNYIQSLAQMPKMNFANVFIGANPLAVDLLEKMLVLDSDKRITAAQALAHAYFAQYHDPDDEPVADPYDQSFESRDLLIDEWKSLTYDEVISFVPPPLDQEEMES
# procedure.details: Inhibition of murine p38 alpha MAP kinase
measured.property: IC50 (nM)

Solved cases below.
1. CN1CCC(O)(c2cc(-c3ccncc3)c(-c3ccc(F)cc3)[nH]2)CC1: 130
2. CN1CCC(O)(c2nc(-c3ccc(F)cc3)c(-c3ccncc3)o2)CC1: 350
3. CN1CCC(O)(c2nc(-c3ccc(F)cc3)c(-c3ccncc3)s2)CC1: 450
4. OC1(c2nc(-c3ccncc3)c(-c3ccc(F)cc3)[nH]2)CCC1: 150

I: CC(C)(O)c1nc(-c2ccncc2)c(-c2ccc(F)cc2)[nH]1
II: OC1(c2nc(-c3ccncc3)c(-c3ccc(F)cc3)[nH]2)CCCCC1
III: OC1(c2nc(-c3ccncc3)c(-c3ccc(F)cc3)[nH]2)CC1
List these items ordered by IC50, big to small. // ordering of labels required in reply
I, II, III

====

# measured.target: Epidermal growth factor receptor (Homo sapiens, UniProt P00533)
# Sequence (P00533 whole entry): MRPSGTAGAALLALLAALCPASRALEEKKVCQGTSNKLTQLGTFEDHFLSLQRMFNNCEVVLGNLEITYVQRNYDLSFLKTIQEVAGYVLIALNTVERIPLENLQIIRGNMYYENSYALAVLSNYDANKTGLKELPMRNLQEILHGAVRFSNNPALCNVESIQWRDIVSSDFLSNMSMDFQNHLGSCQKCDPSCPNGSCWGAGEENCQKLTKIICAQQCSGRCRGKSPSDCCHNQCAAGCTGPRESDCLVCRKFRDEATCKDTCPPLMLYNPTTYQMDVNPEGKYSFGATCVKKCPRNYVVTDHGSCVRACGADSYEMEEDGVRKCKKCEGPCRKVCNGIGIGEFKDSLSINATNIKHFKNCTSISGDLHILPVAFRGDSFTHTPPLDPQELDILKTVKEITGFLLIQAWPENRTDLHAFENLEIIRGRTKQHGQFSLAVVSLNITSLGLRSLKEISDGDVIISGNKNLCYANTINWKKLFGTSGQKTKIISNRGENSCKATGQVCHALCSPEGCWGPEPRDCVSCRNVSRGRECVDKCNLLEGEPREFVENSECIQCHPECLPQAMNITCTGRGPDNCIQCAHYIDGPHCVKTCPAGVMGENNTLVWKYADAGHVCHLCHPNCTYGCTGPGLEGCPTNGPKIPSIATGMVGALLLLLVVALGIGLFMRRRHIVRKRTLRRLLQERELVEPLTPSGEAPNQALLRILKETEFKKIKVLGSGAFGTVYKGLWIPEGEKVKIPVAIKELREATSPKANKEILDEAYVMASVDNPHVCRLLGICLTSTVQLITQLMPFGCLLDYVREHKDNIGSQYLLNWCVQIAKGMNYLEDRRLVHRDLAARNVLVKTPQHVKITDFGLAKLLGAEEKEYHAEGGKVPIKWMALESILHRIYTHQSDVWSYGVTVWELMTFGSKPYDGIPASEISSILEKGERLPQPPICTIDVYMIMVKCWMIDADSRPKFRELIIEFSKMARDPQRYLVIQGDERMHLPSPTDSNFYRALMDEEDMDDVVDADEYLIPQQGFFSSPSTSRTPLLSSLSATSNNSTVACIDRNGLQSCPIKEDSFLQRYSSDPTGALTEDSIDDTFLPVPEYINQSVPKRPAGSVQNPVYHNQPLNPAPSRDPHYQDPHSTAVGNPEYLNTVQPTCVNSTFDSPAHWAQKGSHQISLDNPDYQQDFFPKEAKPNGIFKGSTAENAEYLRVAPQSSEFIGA
measured.property: IC50 (nM)
Numeric answer only, unit nM assumed.

Which IC50 value belongs to CN1CCC(O)(c2nc(-c3ccc(F)cc3)c(-c3ccncc3)o2)CC1 ?
797

====

# measured.target: Mitogen-activated protein kinase 13 (Homo sapiens, UniProt O15264)
# Sequence (O15264 whole entry): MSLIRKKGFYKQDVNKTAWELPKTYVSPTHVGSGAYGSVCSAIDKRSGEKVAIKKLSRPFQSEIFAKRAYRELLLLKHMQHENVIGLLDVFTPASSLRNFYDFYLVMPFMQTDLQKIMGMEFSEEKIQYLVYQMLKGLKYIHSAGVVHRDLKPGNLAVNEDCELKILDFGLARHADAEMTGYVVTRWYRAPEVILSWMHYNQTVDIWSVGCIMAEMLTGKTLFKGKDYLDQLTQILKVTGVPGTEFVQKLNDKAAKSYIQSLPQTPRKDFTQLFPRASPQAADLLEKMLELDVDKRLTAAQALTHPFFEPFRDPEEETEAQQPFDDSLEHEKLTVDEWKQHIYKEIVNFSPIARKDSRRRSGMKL
# procedure.details: Inhibition of human p38 delta MAP kinase
pIC50: −log10 of the molar value.
measured.property: pIC50

Which pIC50 value belongs to CN1CCC(O)(c2nc(-c3ccc(F)cc3)c(-c3ccncc3)o2)CC1 ?
< 5.00

====

# measured.target: Protein kinase C alpha type (Bos taurus, UniProt P04409)
# procedure.details: Inhibition of PKCalpha kinase
measured.property: IC50 (µM)
Numeric answer only, unit µM assumed.

Which IC50 value belongs to CN1CCC(O)(c2nc(-c3ccc(F)cc3)c(-c3ccncc3)o2)CC1 ?
51.1

====

Entries and their inhibition in vivo at 20 mg/kg values follow.
# Tested on: Mus musculus
# procedure.details: Inhibition of LPS-induced TNF-alpha release in mice at 20 mg/kg
# Type: functional
Numeric answer only, unit % assumed.

Solved cases below.
1. CN1CCC(O)(c2nc(-c3ccc(F)cc3)c(-c3ccncc3)s2)CC1: 0
2. CN1CCC(O)(c2cc(-c3ccncc3)c(-c3ccc(F)cc3)[nH]2)CC1: 18
3. CN1CCC(O)(c2nc(-c3ccc(F)cc3)c(-c3ccncc3)[nH]2)CC1: 77

Then this compound:
Which inhibition in vivo at 20 mg/kg value belongs to CN1CCC(O)(c2nc(-c3ccc(F)cc3)c(-c3ccncc3)o2)CC1 ?
50
